Cited source for all entries: PubChem BioAssay AID2254

What follows is a record of IC50 for Serine hydrolase RBBP9 (Homo sapiens) (UniProt O75884).
Endpoint: IC50

• C/C(=N\OC(=O)c1ccc(Cl)cc1)c1nccs1 = 1.9 µM
• C/C(=N\OC(=O)C1CCCCC1)c1nccs1 = 0.635 µM
• C/C(=N\OC(=O)c1ccc(F)cc1)c1nccs1 = 5.7 µM
• COc1ccc(C(=O)O/N=C(\C)c2nccs2)cc1 = 9.1 µM
